target: SMARCA2 (Homo sapiens); assay: MSD SMARCA2 degradation in A549 cell line; format: cell-based; details: A549 cells, 24 h, read-out: SMARCA2 MSD A549 degradation 24 h: Average external-Abs DC50
Sequence (P51531 whole entry): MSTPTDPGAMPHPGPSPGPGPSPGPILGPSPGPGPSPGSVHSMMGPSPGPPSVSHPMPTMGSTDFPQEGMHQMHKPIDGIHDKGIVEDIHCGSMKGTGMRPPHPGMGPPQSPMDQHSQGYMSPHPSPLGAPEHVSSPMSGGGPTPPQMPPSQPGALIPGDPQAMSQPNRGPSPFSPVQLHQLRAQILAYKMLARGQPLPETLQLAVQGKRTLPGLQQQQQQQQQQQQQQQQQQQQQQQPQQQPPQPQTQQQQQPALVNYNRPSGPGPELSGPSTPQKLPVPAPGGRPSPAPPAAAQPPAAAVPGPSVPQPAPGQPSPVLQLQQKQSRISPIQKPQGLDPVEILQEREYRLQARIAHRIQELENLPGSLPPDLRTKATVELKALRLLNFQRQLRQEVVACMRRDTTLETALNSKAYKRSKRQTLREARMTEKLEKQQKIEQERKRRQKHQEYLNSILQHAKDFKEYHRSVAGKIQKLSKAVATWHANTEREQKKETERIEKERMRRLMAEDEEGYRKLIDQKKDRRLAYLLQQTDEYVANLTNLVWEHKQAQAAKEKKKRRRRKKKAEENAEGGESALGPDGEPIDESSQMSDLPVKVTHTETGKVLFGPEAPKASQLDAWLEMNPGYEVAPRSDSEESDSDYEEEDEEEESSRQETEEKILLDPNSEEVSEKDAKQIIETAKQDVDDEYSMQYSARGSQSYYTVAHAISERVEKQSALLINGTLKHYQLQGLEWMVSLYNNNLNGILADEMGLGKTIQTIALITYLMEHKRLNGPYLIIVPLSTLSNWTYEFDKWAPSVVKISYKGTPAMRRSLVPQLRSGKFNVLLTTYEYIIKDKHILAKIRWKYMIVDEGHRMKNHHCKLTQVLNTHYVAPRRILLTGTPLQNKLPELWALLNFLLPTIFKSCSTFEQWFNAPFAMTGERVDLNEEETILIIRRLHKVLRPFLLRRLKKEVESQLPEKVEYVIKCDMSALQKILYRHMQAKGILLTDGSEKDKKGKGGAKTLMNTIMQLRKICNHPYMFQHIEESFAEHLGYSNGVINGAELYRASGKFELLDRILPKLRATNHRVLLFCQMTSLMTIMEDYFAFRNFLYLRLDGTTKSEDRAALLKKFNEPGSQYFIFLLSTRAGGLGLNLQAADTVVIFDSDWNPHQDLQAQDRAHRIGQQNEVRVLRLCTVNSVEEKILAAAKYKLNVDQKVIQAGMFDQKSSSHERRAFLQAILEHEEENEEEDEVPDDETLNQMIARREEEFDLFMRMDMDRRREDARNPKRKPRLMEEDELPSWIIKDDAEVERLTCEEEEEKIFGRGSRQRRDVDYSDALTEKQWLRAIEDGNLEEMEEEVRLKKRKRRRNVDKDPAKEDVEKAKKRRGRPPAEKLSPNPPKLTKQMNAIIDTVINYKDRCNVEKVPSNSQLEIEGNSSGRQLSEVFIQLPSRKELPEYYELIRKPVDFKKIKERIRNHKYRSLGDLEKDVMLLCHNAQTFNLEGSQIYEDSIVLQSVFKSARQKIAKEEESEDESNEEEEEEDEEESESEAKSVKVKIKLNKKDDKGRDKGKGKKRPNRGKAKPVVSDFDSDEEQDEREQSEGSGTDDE
Listed molecules paired with reported DC50

[[record]]
molecule = "C#Cc1ccc([C@H](C)NC(=O)[C@@H]2C[C@@H](O)CN2C(=O)[C@@H](NC(=O)N2CC3(C2)CN(C2CCN(c4cnc(N5CCc6[nH]c7nnc(-c8ccccc8O)cc7c6[C@H]5C)nc4)CC2)C3)C(C)(C)C)cc1"
test_result = "10 to 50 nM"

[[record]]
molecule = "C#Cc1ccc(CNC(=O)[C@@H]2C[C@@H](O)CN2C(=O)[C@@H](N(CCN(C)C)C(=O)N2CC3(CC(N4CCC(c5cnc(N6CCc7[nH]c8nnc(-c9ccccc9O)cc8c7[C@H]6C)nc5)CC4)C3)C2)C(C)(C)C)cc1"
test_result = "> 100 nM"

[[record]]
molecule = "Cc1ncsc1-c1ccc(CNC(=O)[C@@H]2C[C@@H](O)CN2C(=O)[C@@H](NC(=O)[C@H]2CC3(C2)C[C@H](N2CCN(c4cnc(N5CCc6[nH]c7nnc(-c8ccccc8O)cc7c6[C@H]5C)nc4)CC2)C3)C(C)(C)C)cc1 (single isomer, unassigned) [I-76]"
test_result = "10 to 50 nM"

[[record]]
molecule = "Cc1ncsc1-c1ccc([C@H](C)NC(=O)[C@@H]2C[C@@H](O)CN2C(=O)[C@@H](NC(=O)Cc2ccc(CCCC(=O)N3CCN4c5cc(-c6ccccc6O)nnc5NC[C@H]4C3)cc2)C(C)(C)C)cc1 (single isomer, unassigned)"
test_result = "50 to 100 nM"


Reported DC50 ( C#Cc1ccc(CNC(=O)[C@@H]2C[C@@H](O)CN2C(=O)[C@@H](NC(=O)N2CCC[C@@H](CN3CCC(N4CCC(N5CCN6c7cc(-c8ccccc8O)nnc7NC[C@H]6C5)CC4)CC3)C2)C(C)(C)C)cc1 (single isomer, unassigned) ) = > 100 nM

Per the record, C#Cc1ccc(CNC(=O)[C@@H]2C[C@@H](O)CN2C(=O)[C@@H](NC(=O)N2CCC(C(=O)N3CCC(N4CCC(N5CCc6[nH]c7nnc(-c8ccccc8O)cc7c6[C@H]5C)CC4)CC3)CC2)C(C)(C)C)cc1 has DC50 of > 100 nM

// DC50 lookup, molecule = CC#Cc1ccc(CNC(=O)[C@@H]2C[C@@H](O)CN2C(=O)[C@@H](NC(=O)[C@H]2CCC3(CC2)C[C@H](N2CCC(c4cnc(N5CCN6c7cc(-c8ccccc8O)nnc7NC[C@H]6C5)nc4)CC2)C3)C(C)(C)C)cc1 (single isomer, unassigned) [I-103] , result: 50 to 100 nM

Briefly, DC50 measured for Cc1ncsc1-c1ccc(CNC(=O)[C@@H]2C[C@@H](O)CN2C(=O)[C@@H](NC(=O)[C@H]2CC3(C2)C[C@H](N2CCC(c4ccnc(N5CCN6c7cc(-c8ccccc8O)nnc7NC[C@@H]6C5)n4)CC2)C3)C(C)(C)C)cc1 (single isomer, unassigned) [I-3] : > 100 nM

Memo: C#Cc1ccc(CNC(=O)[C@@H]2C[C@@H](O)CN2C(=O)[C@@H](NC(=O)N2CCO[C@H](CN3CCC(N4CCC(N5CCN6c7cc(-c8ccccc8O)nnc7NC[C@H]6C5)CC4)CC3)C2)C(C)(C)C)cc1 , reported DC50: > 100 nM

For this molecule ( Cc1ncsc1-c1ccc(CNC(=O)[C@@H]2C[C@@H](O)CN2C(=O)[C@@H](NC(=O)[C@H]2CC3(CC[C@H](N4CCN(c5ccnc(N6CCc7[nH]c8nnc(-c9ccccc9O)cc8c7[C@H]6C)n5)CC4)CC3)C2)C(C)(C)C)cc1 (single isomer, unassigned) [I-81] ), measured DC50 is 10 to 50 nM

The molecule listed as C#Cc1ccc(CNC(=O)[C@@H]2C[C@@H](O)CN2C(=O)[C@@H](NC(=O)C2CCC3(CC2)CC(N2CCC(N4CCC(C(=O)N5CCN6c7cc(-c8ccccc8O)nnc7NC[C@H]6C5)CC4)CC2)C3)C(C)(C)C)cc1 (stereo partly shown) shows DC50 equal to > 100 nM

Noted for C#Cc1ccc(C2(NC(=O)[C@@H]3C[C@@H](O)CN3C(=O)[C@@H](NC(=O)[C@H]3CC4(C3)C[C@H](N3CCC(N5CCC(N6CCN7c8cc(-c9ccccc9O)nnc8NC[C@H]7C6)CC5)CC3)C4)C(C)(C)C)CC2)cc1 (single isomer, unassigned) [I-211] : its DC50 reads 50 to 100 nM

Value of measured DC50 for the entry Cc1cc(Cl)ccc1C#CCNC(=O)[C@@H]1C[C@@H](O)CN1C(=O)[C@@H](NC(=O)[C@H]1CCC2(CC1)C[C@H](N1CCC(c3cnc(N4CCN5c6cc(-c7ccccc7O)nnc6NC[C@H]5C4)nc3)CC1)C2)C(C)(C)C (single isomer, unassigned) [I-126] : > 100 nM

response.value for C#Cc1ccc(CNC(=O)[C@@H]2C[C@@H](O)CN2C(=O)[C@@H](NC(=O)N2CC3(CC(N4CCC(c5cnc(N6CCc7[nH]c8nnc(-c9ccccc9O)cc8c7[C@@H]6C)nc5)CC4)C3)C2)C(C)(C)C)cc1 (field: DC50) = > 100 nM

The recorded DC50 for CC(C)(C)[C@H](NC(=O)[C@H]1CCC2(CC1)C[C@H](N1CCC(c3cnc(N4CCN5c6cc(-c7ccccc7O)nnc6NC[C@H]5C4)nc3)CC1)C2)C(=O)N1C[C@H](O)C[C@H]1C(=O)NCC#Cc1ccc(Cl)cc1 (single isomer, unassigned) [I-101] is > 100 nM

# molecule C#Cc1ccc([C@H](C)NC(=O)[C@@H]2C[C@@H](O)CN2C(=O)C(c2cc(N3CC4(CC(N5CCC(N6CCC(N7CCN8c9cc(-c%10ccccc%10O)nnc9NC[C@H]8C7)CC6)CC5)C4)C3)no2)C(C)C)cc1 (stereo partly shown) ; its DC50 = < 10 nM
